biological target: HLA-DR0901 protein (Homo sapiens, UniProt P01903+P01911, A100R/A103E/D57H/D86V/F55Y/F60I/F76Y/I96F/K127E/L162R/M171V/P40D/Q125H/Q99R/R33Q/R42F/S133A/S66N/T210M/V115G/W38K/Y107V/Y59G/Y89S); assay: Peptide binding competition assay, DR0901
Residues, ends and D or L forms follow the SMILES beside them.
The entries below are paired with their reported Kd.
The response must be a number in nM with no trailing unit.

CC[C@H](C)[C@H](NC(=O)[C@H](Cc1c[nH]cn1)NC(=O)[C@H](CC(=O)O)NC(=O)[C@H](CC(C)C)NC(=O)[C@H](CO)NC(=O)[C@H](Cc1ccc(O)cc1)NC(=O)[C@H](CC(N)=O)NC(=O)[C@H](Cc1ccccc1)NC(=O)[C@H](CC(N)=O)NC(=O)[C@@H](N)CC(C)C)C(=O)N[C@H](C(=O)N[C@H](C(=O)N[C@@H](CC(=O)O)C(=O)O)C(C)C)[C@@H](C)CC [LNFNYSLDHIIVD] (H-LNFNYSLDHIIVD-OH) : 29

In: What value of measured Kd is listed for CC[C@H](C)[C@H](NC(=O)[C@H](CCCCN)NC(=O)[C@H](CC(=O)O)NC(=O)[C@H](CC(C)C)NC(=O)[C@H](CO)NC(=O)[C@H](Cc1ccc(O)cc1)NC(=O)[C@H](CC(N)=O)NC(=O)[C@H](Cc1ccccc1)NC(=O)[C@H](CC(N)=O)NC(=O)[C@@H](N)CC(C)C)C(=O)N[C@@H](Cc1ccc(O)cc1)C(=O)N[C@H](C(=O)N[C@@H](CC(=O)O)C(=O)O)C(C)C [LNFNYSLDKIYVD] (H-LNFNYSLDKIYVD-OH) ?
Out: 240

====

target: HLA-DR0901 protein (Homo sapiens, UniProt P01903+P01911, A100R/A103E/D57H/D86V/F55Y/F60I/F76Y/I96F/K127E/L162R/M171V/P40D/Q125H/Q99R/R33Q/R42F/S133A/S66N/T210M/V115G/W38K/Y107V/Y59G/Y89S); assay: Peptide binding competition assay, DR0901
Residues, ends and D or L forms follow the SMILES beside them.
readout_label: Kd (nM)
The response must be a number in nM with no trailing unit.

CC[C@H](C)[C@H](NC(=O)[C@H](CCCCN)NC(=O)[C@H](CCSC)NC(=O)[C@H](CC(C)C)NC(=O)[C@H](CO)NC(=O)[C@H](Cc1ccc(O)cc1)NC(=O)[C@H](CC(N)=O)NC(=O)[C@H](Cc1ccccc1)NC(=O)[C@H](CC(N)=O)NC(=O)[C@@H](N)CC(C)C)C(=O)N[C@H](C(=O)N[C@H](C(=O)N[C@@H](CC(=O)O)C(=O)O)C(C)C)[C@@H](C)CC [LNFNYSLMKIIVD] (H-LNFNYSLMKIIVD-OH) : 46

Now for another entry.
In: What value of measured Kd is listed for CC[C@H](C)[C@H](NC(=O)[C@H](CC(=O)O)NC(=O)[C@H](CC(=O)O)NC(=O)[C@H](CC(C)C)NC(=O)[C@H](CO)NC(=O)[C@H](Cc1ccc(O)cc1)NC(=O)[C@H](CC(N)=O)NC(=O)[C@H](Cc1ccccc1)NC(=O)[C@H](CC(N)=O)NC(=O)[C@@H](N)CC(C)C)C(=O)N[C@H](C(=O)N[C@H](C(=O)N[C@@H](CC(=O)O)C(=O)O)C(C)C)[C@@H](C)CC [LNFNYSLDDIIVD] (H-LNFNYSLDDIIVD-OH) ?
Out: 176

Where do these numbers come from? They come from paper PMC4061985.
